Test: in vivo
Settings: male, mouse, po, 20 mg/kg
endpoint_label: Tmax
In your response, the unit should come after the numeric value.

Challenge: Bench note: what Tmax did Cc1nnc(-c2noc3c(F)c4c(cc23)CC2(C(=O)NC(=O)NC2=O)[C@H]2[C@H](C)O[C@H](C)CN42)o1 show?
Response given: 1 h

* * *

MBC reference
Test system: M. tuberculosis H37Rv
Assay: microbe, parasite or virus in culture
Assay type: cell-based
Settings: Mycobacterium tuberculosis, H37RV, 168 h; CARA, transfer to charcoal agar, additional 7 days
Your answer is read as µM, so omit the unit and give the number.

1) COc1c(N2C[C@@H]3CCCN[C@@H]3C2)c(F)cc2c(=O)c(C(=O)O)cn(C3CC3)c12 [Moxifloxacin, moxifloxacin] :: 0.78

Challenge: Can you look up the measured MBC of Cc1nnc(-c2noc3c(F)c4c(cc23)CC2(C(=O)NC(=O)NC2=O)[C@H]2[C@H](C)O[C@H](C)CN42)o1 [Compound 22] for me?
Response given: 15.6

Challenge: One more compound: CC(=O)NC[C@H]1CN(c2ccc(N3CCOCC3)c(F)c2)C(=O)O1 [Linezolid, linezolid]
Response given: 7.8

Challenge: Continue with NNC(=O)c1ccncc1 [Isoniazid, isoniazid]
Response given: 3.9

* * *

Test system: M. tuberculosis H37Rv
Test: MIC against M. tuberculosis H37Rv in 7H9 medium with various supplements
Format: cell-based, Mycobacterium tuberculosis
Conditions: Mycobacterium tuberculosis, H37RV; read-out: MIC, GLU/CAS/TX
endpoint_label: MIC
I'd appreciate it if you wrote the number followed by its unit.

Here's what some known entries look like.
1) CC1CN2c3c(cc4c(N5C(=O)OCC5CO)noc4c3F)CC3(C(=O)NC(=O)NC3=O)C2C(C)O1 (stereo not shown) :: 3.1 µM
2) C[C@@H]1CN2c3c(cc4c(-n5ncnc5NCCN(C)C)noc4c3F)CC3(C(=O)NC(=O)NC3=O)[C@H]2[C@H](C)O1 :: 2.3 µM
3) COc1ncnn1-c1noc2c(F)c3c(cc12)CC1(C(=O)NC(=O)NC1=O)[C@H]1[C@H](C)O[C@H](C)CN31 :: 9.4 µM
4) CNc1ncnn1-c1noc2c(F)c3c(cc12)CC1(C(=O)NC(=O)NC1=O)[C@H]1[C@H](C)O[C@H](C)CN31 :: 3.1 µM
5) Cc1nnc(-c2noc3c(F)c4c(cc23)CC2(C(=O)NC(=O)NC2=O)[C@H]2[C@H](C)O[C@H](C)CN42)o1 :: 2.6 µM

Challenge: Any idea what its MIC is? The compound is COCC1COC(=O)N1c1noc2c(F)c3c(cc12)CC1(C(=O)NC(=O)NC1=O)C1C(C)OC(C)CN31 (stereo not shown)
Response given: 19 µM

Challenge: Ok, now C[C@@H]1CN(c2noc3c(F)c4c(cc23)CC2(C(=O)NC(=O)NC2=O)[C@H]2[C@H](C)O[C@H](C)CN42)C(=O)O1
Response given: 4.7 µM

* * *

Experiment: in vivo
Conditions: male, mouse, po, 500 mg/kg
endpoint_label: Cmax (µg/mL)
Provide the reading as a plain figure in µg/mL.

Challenge: Given Cc1nnc(-c2noc3c(F)c4c(cc23)CC2(C(=O)NC(=O)NC2=O)[C@H]2[C@H](C)O[C@H](C)CN42)o1 , state its recorded Cmax.
Response given: 117
